What sfGFP reporter fluorescence was measured for each of the following?
B1: library; numbered along this chain (parent)
chain: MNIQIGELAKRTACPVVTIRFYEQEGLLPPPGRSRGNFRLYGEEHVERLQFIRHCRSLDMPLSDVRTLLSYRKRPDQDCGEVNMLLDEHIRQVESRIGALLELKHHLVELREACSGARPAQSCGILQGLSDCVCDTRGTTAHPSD

Variants of: B1
Assay name: sfGFP reporter fluorescence (15 h) (µM FITC); higher = higher leak
Setup conditions: library round: Round 0; ligand: none
Lab note: write the figure by itself, no unit.

// Input: E7M . Output its sfGFP reporter fluorescence only.
0.0616

Tell me sfGFP reporter fluorescence reported for I97E
0.0574

Please list sfGFP reporter fluorescence recorded for the variant K104M
0.059

Retrieve sfGFP reporter fluorescence measured for K104N and print it.
0.0557

Give reported sfGFP reporter fluorescence value for F21G
0.059

Specify sfGFP reporter fluorescence for L62M and stop.
0.066

Look up sfGFP reporter fluorescence of M60L P61N D64K L107C and report it.
3.04

Look up and report measured sfGFP reporter fluorescence for this entry: E7W
0.0608

Give a short answer stating reported sfGFP reporter fluorescence for unchanged .
0.0588

Output measured sfGFP reporter fluorescence for this item: L110Y
0.0581

Return sfGFP reporter fluorescence for the following variant: M60V
0.0715

In one line, give reported sfGFP reporter fluorescence of the entry R33E .
0.0616

Give sfGFP reporter fluorescence for E94K
0.0612

For L68G , write its sfGFP reporter fluorescence.
0.064

Using the record for L68N , state its measured sfGFP reporter fluorescence.
0.0588
